The reported numbers originate from PubChem BioAssay (NCI).

Kindly supply the reported growth inhibition values for the records listed here.
# testProtocol: NCI Yeast Anticancer Drug Screen. Data for the mlh1 rad18 strain (AID 175)
# experimentalConditions: S. cerevisiae mlh1 rad18 strain growth inhibition; at 50.0 µM; hits give high values
The panel holds about 79,000 compounds, 15% with a hit somewhere; the sample as a whole holds those more often.
Report the figure in % without appending any unit label.

The compound listed as O=NNc1ccc(Sc2ccc3ccccc3c2)cn1 shows growth inhibition equal to 51.5

Record CCN(CC)c1cccc(OC(=O)Nc2cccc(C(F)(F)F)c2)c1 , field growth inhibition: 83.4

Lab note: measured growth inhibition of COc1c2c3c(ccnc3c3ccccc13)C(=O)N2C was 75

growth inhibition in this record for CC(C)NCC=C=Nc1ccccc1 : 24.2

Notebook: CCN(CC)CCOc1ccc(NC(=S)Nc2ccc(OCC(C)C)cc2)cc1 , growth inhibition read as 80.9

Form: compound = O=C(Nc1cccc2ccccc12)OCC1CCc2ccccc2C1 (configuration not stated) ; growth inhibition = 31.1

// growth inhibition value for CC(=O)Oc1ccc(Cl)cc1Cc1cc(Cl)ccc1OC(C)=O : 95.2

// growth inhibition value for C1=C(c2c(-c3ccccc3)[nH]c3ccccc23)Cc2ccccc21 : 54.8

Notebook: Clc1ccc(C(c2ccc(Cl)cc2)c2cncnc2)cc1 , growth inhibition read as 86.8

Measured growth inhibition of COc1ccc(-c2cc3ccccc3c(=O)n2Cc2ccccc2)cc1 : 79.3

Data point: CCCCCCCCCC(=O)CC(=O)c1ccc(O)cc1O ; growth inhibition = 87.5

Lab book: growth inhibition of CC(C)C1=CC23CCC4C(C)(C(=O)O)CCCC4(C)C2CC1CC3C#N (configuration not stated) noted as 98.2

----------
Exercise: for every item that follows, state its recorded growth inhibition.
# testProtocol: NCI Yeast Anticancer Drug Screen. Data for the rad50 strain (AID 155);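 further: 0% = growth of vehicle-only cultures of the same strain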
# experimentalConditions: S. cerevisiae rad50 strain growth inhibition; at 5.0 µM (retest, dose inferred, filed as 0.5); hits give high values
The panel holds about 79,000 compounds, 15% with a hit somewhere; the sample as a whole holds those more often.
# output: bare number, implied unit %

The recorded growth inhibition for entry CCCCCCCCCCCCCC(=O)CC(=O)c1c(O)cccc1O equals 2

Note to self: growth inhibition recorded for CC(C)(CCCCC(C)(C)NCC1COc2ccccc2O1)NCC1COc2ccccc2O1 (stereo unspecified) was 3

growth inhibition for COC(=O)[C@@]12OC[C@]34[C@H]([C@@H](O)[C@@H]1O)[C@@]1(C)CC(=O)C(O)=C(C)[C@@H]1C[C@H]3OC(=O)[C@H](OC(=O)C(Cc1ccccc1)NC(=O)OC(C)(C)C)[C@@H]24 (stereo partly specified) is 24

For this compound ( CC(=O)Nc1cccc2c1ccc1ccc3ccccc3c12 ), measured growth inhibition is 13

Record O=C(Nc1nnc(-c2ccccc2)s1)c1cc(=O)c2cc(Cl)ccc2o1 . Reported growth inhibition: -3

Sample CC(=O)Oc1cccc2c(OC(C)=O)cccc12 ; growth inhibition observed: -8

Sure, the documented growth inhibition for CCCN(CCC)C(=O)c1nc(N)nc(-c2ccc(OC)cc2)c1-c1ccc(OC)cc1 is 9

The reported growth inhibition of the compound CCCCOC(=O)c1ccc(O)c(OC)c1 was 3

Lab note: measured growth inhibition of CN(C)c1nc(-c2ccccc2)cc(-c2ccc(O)cc2)n1 was 14

Lab book: growth inhibition of CCOP(=O)(OCC)/C(C#N)=C/c1coc2cc(C)cc(C)c2c1=O noted as 19

growth inhibition reading for O=C(O)COc1cc(Br)cc(Br)c1-c1ccccc1 : 2

----------
# testProtocol: NCI Yeast Anticancer Drug Screen. Data for the mec2-1 strain (AID 157)
# experimentalConditions: S. cerevisiae mec2-1 strain, at 50.0 µM
About 79,000 compounds went through this panel and 15% of them were active in at least one assay; those are over-represented in the sample as a whole. Active and inactive are the calls of the source. Cut-off read from the data, not from the text of the source: active = growth inhibition above about 70%; inactive = the rest.
A correct response names exactly one class from yes = active, no = inactive

Prompt: Please let me know the test result on file for Cc1occc1C(=S)Nc1ccc(Cl)c(COC(C)(C)C)c1 .
Completion: yes

Prompt: Given CC(=O)NC(C)(C)C1CCC(C)=C(c2ccccc2)C1 (stereo unspecified) , state the outcome it received in this test.
Completion: no

Prompt: Per the assay record, what outcome was assigned to Fc1ccc(CSC(=S)Nc2ccc(F)cc2)cc1 ?
Completion: no

Prompt: // return assay outcome for C/C(=N/NC(=O)Nc1ccc(N=Nc2ccccc2)cc1)c1ccccn1
Completion: no

Prompt: # outcome recorded in this test, key = Cc1cc2nc3n(c2cc1C)C(c1c(F)cccc1F)SC3 (stereo unspecified)
Completion: no

Prompt: # lookup: test call for COc1ccc2c(c1)CCCN2S(=O)(=O)c1ccc(N)cc1
Completion: no

----------
Would you mind telling me the reported growth inhibition of each entry?
# testProtocol: NCI Yeast Anticancer Drug Screen. Data for the rad50 strain (AID 155);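 further: 0% = growth of vehicle-only cultures of the same strain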
# experimentalConditions: S. cerevisiae rad50 strain growth inhibition; at 50.0 µM; hits give high values
About 79,000 compounds went through this panel and 15% of them were active in at least one assay; those are over-represented in the sample as a whole.
Number only, in %; omit the unit.

Briefly, growth inhibition measured for NSc1ccc(N)s1 : 37

The compound CN(C)CC1CCC/C(=C\c2ccc(Cl)c(Cl)c2)C1=O (stereo not given) showed growth inhibition equal to 69.3

Just so you know, measured growth inhibition for CCC/C(=N\O)S(=O)(=O)c1ccc(NN=O)nc1 came out at -22.1

For record CCC(C)COC(=O)c1ccc([N+](=O)[O-])cc1 (stereo not given) the listed growth inhibition is 50

Kindly note the recorded growth inhibition for CSCS(=O)C[C@H](CO)NC(=O)/C=C/c1c(C)[nH]c(=O)[nH]c1=O (stereo not given in full) , which is 84.5

# compound CCCC(CC)c1cc(O)c(O)cc1C(CC)CCC (stereo not given) ; its growth inhibition = 73

The recorded growth inhibition for entry Nc1nn2c(C(Br)Br)cc(C(Br)Br)nc2c1[N+](=O)[O-] equals 99.5

The reported growth inhibition of the compound CSC(=S)OC1CC(n2cnc3c(NC(=O)c4ccccc4)ncnc32)OC1CO[Si](C)(C)C(C)(C)C (stereo not given) was 6.5

For this compound ( N#Cc1ccc(C2Oc3ccc(Cl)cc3C=C2[N+](=O)[O-])cc1 (stereo not given) ), measured growth inhibition is 84.7

The compound listed as CC1=C(C(=O)Nc2ccc(C)cc2C)C(c2cccc([N+](=O)[O-])c2)C(C(=O)Nc2ccc(C)cc2C)=C(C)N1 shows growth inhibition equal to 28.6

Data point: Brc1c2nc3ccccc3nc2n2ccc3ccccc3c12 ; growth inhibition = 47.8

Value of measured growth inhibition for the entry O=S(=O)(Nc1ccc2ccc3cccc4ccc1c2c34)c1ccccc1 : 57.6

GET /value?item= CC(=O)N1c2ccccc2Sc2ccc(C(=O)CCl)cc21 &field=growth inhibition returns 95.7

growth inhibition for Cc1cn(C2CC(Br)C(COC(c3ccccc3)(c3ccccc3)c3ccccc3)O2)c(=O)[nH]c1=O (stereo not given) is 97.6

Per the records, this compound ( COC(=O)c1ccc(CCc2cc(O)ccc2O)cc1 ) has growth inhibition equal to 98.8

Briefly, growth inhibition measured for CCCCCCCCCCCCCCCCCC[N+]1(CC)CCCCC1 : 90.3

// sample Oc1cc(F)ccc1-c1ccc(F)cc1 , its growth inhibition was 72.5

# growth inhibition (compound: O=[N+]([O-])c1cccc(S(=O)(=O)Cl)c1 ) is -15.3

Record CCN(C(=O)C(F)(F)F)c1ccc2c(c1)C(=O)c1ccccc1-2 , field growth inhibition: 26.1

# growth inhibition (compound: CCNC(=S)N/N=C(\C)c1cccc(C)n1 ) is 54.6

Item: COc1cc(C(=O)OCC(C)C)ccc1O | growth inhibition: 15.1

growth inhibition reported for this compound CC(C)(C)c1cc(Nc2ccc([N+](=O)[O-])cc2[N+](=O)[O-])cc(C(C)(C)C)c1O : -14.9

Record summary for CCc1nc(N)nc(N)c1-c1ccc(NCCCCCCCCCCCCN)c([N+](=O)[O-])c1 : reported growth inhibition = 94.2

Reported growth inhibition of CN(C)CCCNc1c2ccccc2nc2cccc([N+](=O)[O-])c12 : 89.4

Per the records, this compound ( CCOC(=O)c1c(N)sc2c1CCCCC2 ) has growth inhibition equal to 47

growth inhibition reading for CC(C)(C)C(=O)CC(=O)C(F)(F)C(F)(F)C(F)(F)F.CC(C)(C)C(=O)CC(=O)C(F)(F)C(F)(F)C(F)(F)F.CC(C)(C)C(=O)CC(=O)C(F)(F)C(F)(F)C(F)(F)F.[Er] : 92.5

Lab note: measured growth inhibition of CCCCCCCCCC(=O)CC(=O)c1c(O)cccc1O was 86

Briefly, growth inhibition measured for O=c1c2c3ccccc3[nH]c2c2cccc3c2n1CCC3 : 88.7

For C/C(=N/NC(=S)Nc1ccccc1Cl)c1ccccn1 the compound record lists growth inhibition as 70.4

// growth inhibition value for NC(=O)c1ccc[n+](CC(=O)Nc2ccc(Cl)cc2)c1 : 5.6

Given item CC(=O)Nc1nc(Cl)c2ncn(C3CC(OC(=O)c4ccc(C)cc4)C(COC(=O)c4ccc(C)cc4)O3)c2n1 (stereo not given) , the value recorded as its growth inhibition is 53.1

Reported growth inhibition for O=C(c1ccc(Cl)cc1)C1OC12C(=O)Nc1c(Cl)cc(Cl)cc12 (stereo not given) was 99.2

// field: growth inhibition; key: CC(=O)OC1CCC2(C)C(=CCC3C2CCC2(C)C(C(C)N)CCC32)C1 (stereo not given) ; value = 98.3

Reported growth inhibition of CCC1(CC)COC(C)(C(=O)O)OC1 : 56.9

Lab note: measured growth inhibition of Cc1cccc(/C=N/NC(=S)Nc2ccc(Cl)cc2)n1 was 70

// growth inhibition lookup, compound = CCCCCCCCCCCCCCCc1ncc(C)[nH]1 , result: 99.1

Per the records, this compound ( O=c1c(Cl)c(Cl)oc(Cl)c1Cl ) has growth inhibition equal to 79.2

response.value for CCCC(Sc1ccccc1)c1ccccc1NC(C)=O (stereo not given) (field: growth inhibition) = 85.5

Lab note: Cc1ccc(S(=O)(=O)N/N=C(\C=C\c2ccccc2)c2ccccc2)cc1 gave growth inhibition of 59.1

growth inhibition reported for this compound Oc1ccc2cc(Br)ccc2c1 : 54.1

Record CC(CO)(CO)Cc1ccccc1 , field growth inhibition: 96.5

For record Cc1ccccc1Oc1ccccc1N the listed growth inhibition is 79.2

Reported growth inhibition ( CC1(C)S[C@@H]2[C@H](N3C(=O)c4ccccc4C3=O)CN2[C@H]1NC(=O)N[C@@H]1N2C[C@@H](N3C(=O)c4ccccc4C3=O)[C@H]2SC1(C)C ) = 39.6

Recorded result, OCCc1ccccc1C(c1ccccc1)c1ccccc1 , growth inhibition: 99.3

Record COc1ccc(C2SCC(=O)N2c2ccc(-c3ccc(-n4c(-c5ccccc5)nc5ccccc5c4=O)cc3)cc2)cc1 (stereo not given) . Reported growth inhibition: 21.6
